Test system: E. coli EC-2549
test.name: Antibacterial microtitration assay (Test A), MIC
Type: cell-based
cond: Escherichia coli, EC2549; Gram Negative Bacteria; strain EC-2549; read-out: Minimum Inhibitory Concentrations E. coli EC-2549
Record form. Attribute: MIC. Fill in for each entry.
Quick reminder: number only, in µg/mL, skip the unit.

INPUT: I have this molecule here, Cc1c(N2C[C@](C)(CO)[C@](C)(CO)C2)c(F)cc2c(=O)n(N)c(=O)n(C3CC3)c12 [drawing 341] , and I need its recorded MIC.
OUTPUT: 64

INPUT: I have this molecule here, Cc1c(N2CC3CCC(O)(CO)C3C2)c(F)cc2c(=O)n(N)c(=O)n(C3CC3)c12 (stereo not drawn) [drawing 344] , and I need its recorded MIC.
OUTPUT: 32

INPUT: I have this molecule here, Nn1c(=O)c2cc(F)c(N3C[C@H](CO)[C@H](F)C3)nc2n(C2CC2)c1=O [drawing 334] , and I need its recorded MIC.
OUTPUT: 4
